system_name: Neuropilin-1 (Homo sapiens) (UniProt O14786)
Sequence (O14786 whole entry, looked up): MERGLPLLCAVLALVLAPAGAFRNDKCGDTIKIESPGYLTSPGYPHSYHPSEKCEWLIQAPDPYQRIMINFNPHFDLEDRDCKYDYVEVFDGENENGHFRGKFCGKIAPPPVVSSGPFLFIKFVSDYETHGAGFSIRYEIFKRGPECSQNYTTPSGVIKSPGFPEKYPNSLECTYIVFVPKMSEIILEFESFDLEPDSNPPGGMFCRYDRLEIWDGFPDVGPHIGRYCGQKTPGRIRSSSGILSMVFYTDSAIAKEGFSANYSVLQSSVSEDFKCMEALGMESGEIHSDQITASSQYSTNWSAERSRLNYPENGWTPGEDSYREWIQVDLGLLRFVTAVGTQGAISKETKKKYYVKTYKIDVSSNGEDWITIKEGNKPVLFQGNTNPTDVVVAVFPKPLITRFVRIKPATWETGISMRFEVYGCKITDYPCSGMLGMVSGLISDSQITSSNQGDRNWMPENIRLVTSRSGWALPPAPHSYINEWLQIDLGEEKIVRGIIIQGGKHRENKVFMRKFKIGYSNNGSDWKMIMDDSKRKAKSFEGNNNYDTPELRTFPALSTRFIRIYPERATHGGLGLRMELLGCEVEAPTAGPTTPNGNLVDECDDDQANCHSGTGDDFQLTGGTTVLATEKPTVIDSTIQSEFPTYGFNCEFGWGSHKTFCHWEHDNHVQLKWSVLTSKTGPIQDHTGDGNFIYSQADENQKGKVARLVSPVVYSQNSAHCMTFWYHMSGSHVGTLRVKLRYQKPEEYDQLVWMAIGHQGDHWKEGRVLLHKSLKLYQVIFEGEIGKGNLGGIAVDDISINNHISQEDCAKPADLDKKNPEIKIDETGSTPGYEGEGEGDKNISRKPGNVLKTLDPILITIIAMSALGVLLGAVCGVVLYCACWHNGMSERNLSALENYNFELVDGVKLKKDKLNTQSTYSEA
assay_summary: NRP-1/CendR peptide interaction modulators – biochemical, fluorescence polarization, uHTS, primary screen (AID 602438)
assay_conditions: FAM-RPARPAR peptide binding to NRP-1, fluorescence polarization; at 25 µM
In all, about 360,000 compounds went through this assay and about 3,100 (0.86%) were called active.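 The calls were made as follows: active = inhibition or corrected inhibition above about 18%, plus a signal ratio from 0.5 to 1.5 (limit read from the data, passing the limit was not always enough); inactive = the rest.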 Many of the other results were omitted from the sample, so actives are more common in it than they were.
Classes to choose from: 1 (active), -1 (inactive)

COc1ccc(Cl)cc1-c1cc(C(=O)Nc2cc(OC)c(OC)c(OC)c2)[nH]n1 | -1
CCN=C1S/C(=C\c2cc(Br)ccc2OCC(=O)OCC)C(=O)N1CC | -1
CCCN1C2CCCC1CC(NC(=O)NC13CC4CC(CC(C4)C1)C3)C2 (stereo unspecified) | -1
Cc1ccc(S(=O)(=O)N(CC(=O)Nc2cccnc2)c2ccc(Br)cc2)cc1 | -1
Cc1cccc(C)c1NC(=O)CN1CCN(c2ccc(F)cc2)CC1 | 1
CCCCN(C)CCNC(=O)C1CCCN(S(=O)(=O)c2cccc3nsnc23)C1 (stereo unspecified) | -1
CCOC(=O)N1CCN(CC(=O)Nc2ccc(F)cc2)CC1 | -1
N#Cc1ccc(C(=O)Nc2nc(-c3cccs3)c(C(=O)C(F)(F)F)s2)cc1 | -1

INPUT: // param item: O=C(NCC1CCCO1)c1ccccc1-c1nc(-c2ccccc2Cl)no1 (stereo unspecified) ; yields the recorded call
OUTPUT: -1

INPUT: Please share the test call associated with `CSc1nnnn1-c1c(C)cc(C)cc1C` .
OUTPUT: -1

INPUT: Please let me know the test result on file for Cc1ccc(-c2nc(CS(=O)CC(=O)N3CCN(c4ncccn4)CC3)c(C)o2)cc1 (stereo unspecified) .
OUTPUT: -1
